For each entry below, report its viability, T/C value.
# Test system: 521955-158-R2-J5-PDC complex spheroid viability;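 note: spheroids exposed to agents for one week before reading; 100% = DMSO vehicle control viability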
# Assay info: Anticancer human tumor 521955-158-R2-J5-PDC patient-derived pancreatic carcinoma cell line growth inhibition [GQUAD]
# Condition set: second compound 10 µM; first compound 0.1 µM; active compounds read low
Write the answer as a number in %, unit excluded.

// recorded viability, T/C for COc1cccc2c1C(=O)c1c(O)c3c(c(O)c1C2=O)CC(O)(C(=O)CO)CC3OC1CC(N)C(O)C(C)O1 (stereo not drawn) + Cc1[nH]c2ccc(F)cc2c1-c1nc2c3cccnc3c3ncccc3c2[nH]1 : 73.6

// recorded viability, T/C for O=c1[nH]cc(F)c(=O)[nH]1 + Cc1[nH]c2ccc(F)cc2c1-c1nc2c3cccnc3c3ncccc3c2[nH]1 : 104

// recorded viability, T/C for C#Cc1c(F)ccc2cc(O)cc(-c3ncc4c(N5CC6CCC(C5)N6)nc(OCC56CCCN5CC(F)C6)nc4c3F)c12 (stereo not drawn) + CN(C)c1ccc(Nc2c3ccc(NC(=O)CCN4CCCC4)cc3nc3cc(NC(=O)CCN4CCCC4)ccc23)cc1 : 23.6

// recorded viability, T/C for CC(=O)O[C@H]1C(=O)[C@@]2(C)[C@H]([C@H](OC(=O)c3ccccc3)[C@]3(O)C[C@H](OC(=O)[C@H](O)[C@@H](NC(=O)c4ccccc4)c4ccccc4)C(C)=C1C3(C)C)[C@]1(OC(C)=O)CO[C@@H]1C[C@@H]2O + Cc1cnc(CNC(=O)c2c(=O)c3ccc(N4CCCN(C)CC4)nc3n3c2sc2ccccc23)cn1 : 2.35

// recorded viability, T/C for COc1cccc2c1C(=O)c1c(O)c3c(c(O)c1C2=O)CC(O)(C(=O)CO)CC3OC1CC(N)C(O)C(C)O1 (stereo not drawn) + Cc1cnc(CNC(=O)c2c(=O)c3ccc(N4CCCN(C)CC4)nc3n3c2sc2ccccc23)cn1 : 14.4

// recorded viability, T/C for COc1ccc([C@@H](O)c2cc(-c3ncnc4cc(N5CCOCC5)ccc34)c(F)cc2Cl)nn1 + CN(C)c1ccc(Nc2c3ccc(NC(=O)CCN4CCCC4)cc3nc3cc(NC(=O)CCN4CCCC4)ccc23)cc1 : 55.6

// recorded viability, T/C for COc1cc(C2c3cc4c(cc3C(OC3OC5COC(C)OC5C(O)C3O)C3COC(=O)C23)OCO4)cc(OC)c1O (stereo not drawn) + Cc1[nH]c2ccc(F)cc2c1-c1nc2c3cccnc3c3ncccc3c2[nH]1 : 94

// recorded viability, T/C for Cc1cccc(N(C)C(=O)C2C(O)CCN2c2nc(C)cc(C(F)(F)F)c2C#N)c1 (stereo not drawn) + CN(C)c1ccc(Nc2c3ccc(NC(=O)CCN4CCCC4)cc3nc3cc(NC(=O)CCN4CCCC4)ccc23)cc1 : 54.3

// recorded viability, T/C for O=c1[nH]cc(F)c(=O)[nH]1 + Cc1cnc(CNC(=O)c2c(=O)c3ccc(N4CCCN(C)CC4)nc3n3c2sc2ccccc23)cn1 : 21.7

// recorded viability, T/C for O=C(c1cc(Cc2n[nH]c(=O)c3ccccc23)ccc1F)N1CCN(C(=O)C2CC2)CC1 + Cc1[nH]c2ccc(F)cc2c1-c1nc2c3cccnc3c3ncccc3c2[nH]1 : 92.7

// recorded viability, T/C for C=CCn1c(=O)c2cnc(Nc3ccc(N4CCN(C)CC4)cc3)nc2n1-c1cccc(C(C)(C)O)n1 + CN(C)c1ccc(Nc2c3ccc(NC(=O)CCN4CCCC4)cc3nc3cc(NC(=O)CCN4CCCC4)ccc23)cc1 : 67.6

// recorded viability, T/C for CC1COCCN1c1cc(C2(O)CC3CCC(C2)O3)c2cnn(-c3ccn[nH]3)c2n1 (stereo not drawn) + Cc1[nH]c2ccc(F)cc2c1-c1nc2c3cccnc3c3ncccc3c2[nH]1 : 10.6

// recorded viability, T/C for COc1cc(C2c3cc4c(cc3C(OC3OC5COC(C)OC5C(O)C3O)C3COC(=O)C23)OCO4)cc(OC)c1O (stereo not drawn) + Cc1cnc(CNC(=O)c2c(=O)c3ccc(N4CCCN(C)CC4)nc3n3c2sc2ccccc23)cn1 : 17.8

src = PubChem BioAssay AID2060495
